# subject_of_test: Chromo domain-containing protein 1 (Saccharomyces cerevisiae (strain ATCC 204508 / S288c) (Baker's yeast)) (UniProt P32657)
# Sequence (P32657 whole entry, the tested form may be a part): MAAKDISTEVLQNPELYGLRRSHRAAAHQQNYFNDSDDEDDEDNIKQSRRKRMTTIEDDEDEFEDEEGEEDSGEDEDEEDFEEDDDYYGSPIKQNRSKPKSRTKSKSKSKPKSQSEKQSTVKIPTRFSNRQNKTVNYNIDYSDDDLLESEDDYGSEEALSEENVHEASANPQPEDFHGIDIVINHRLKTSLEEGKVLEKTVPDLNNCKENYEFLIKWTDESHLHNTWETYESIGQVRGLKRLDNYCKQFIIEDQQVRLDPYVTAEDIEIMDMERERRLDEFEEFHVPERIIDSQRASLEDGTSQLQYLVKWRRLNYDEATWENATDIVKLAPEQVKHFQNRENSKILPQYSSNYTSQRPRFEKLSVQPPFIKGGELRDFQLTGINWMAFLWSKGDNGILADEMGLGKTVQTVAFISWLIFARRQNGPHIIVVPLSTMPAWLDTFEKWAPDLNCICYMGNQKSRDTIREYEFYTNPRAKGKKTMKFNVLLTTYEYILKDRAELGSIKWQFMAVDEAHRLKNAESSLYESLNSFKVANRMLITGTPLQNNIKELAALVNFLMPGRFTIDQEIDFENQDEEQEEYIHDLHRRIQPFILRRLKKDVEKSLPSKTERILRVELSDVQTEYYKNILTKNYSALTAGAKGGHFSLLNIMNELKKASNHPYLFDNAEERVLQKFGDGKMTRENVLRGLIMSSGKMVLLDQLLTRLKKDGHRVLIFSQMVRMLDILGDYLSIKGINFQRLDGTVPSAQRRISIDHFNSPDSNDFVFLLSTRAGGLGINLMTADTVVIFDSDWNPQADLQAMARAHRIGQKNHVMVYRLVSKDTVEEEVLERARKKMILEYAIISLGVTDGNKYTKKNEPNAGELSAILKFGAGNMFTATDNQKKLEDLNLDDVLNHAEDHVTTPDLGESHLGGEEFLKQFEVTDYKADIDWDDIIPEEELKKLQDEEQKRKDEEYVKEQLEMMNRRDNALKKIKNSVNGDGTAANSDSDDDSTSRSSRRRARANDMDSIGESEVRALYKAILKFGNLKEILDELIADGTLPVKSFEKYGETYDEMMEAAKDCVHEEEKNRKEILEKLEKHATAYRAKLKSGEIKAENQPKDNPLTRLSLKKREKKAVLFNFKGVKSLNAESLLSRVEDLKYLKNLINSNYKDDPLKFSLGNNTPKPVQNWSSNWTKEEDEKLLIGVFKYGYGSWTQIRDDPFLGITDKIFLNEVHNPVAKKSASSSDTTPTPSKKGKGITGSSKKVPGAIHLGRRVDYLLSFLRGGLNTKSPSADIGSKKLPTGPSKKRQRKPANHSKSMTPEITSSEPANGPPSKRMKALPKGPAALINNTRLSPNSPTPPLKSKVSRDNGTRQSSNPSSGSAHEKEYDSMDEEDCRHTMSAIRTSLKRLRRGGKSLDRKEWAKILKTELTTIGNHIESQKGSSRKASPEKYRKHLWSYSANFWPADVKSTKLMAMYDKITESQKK
# test_summary: ScCHD-1 Enzyme Inhibition Assay
# Type: functional
# Design: scale not given: in the data most compounds retested in dose-response had high values
# test_conditions: 30 µM
Recorded Percent Effect, one value per entry.
Write the value in % as a bare number.

Cc1n[nH]c(C)c1-c1cnc(CC2CCN(C)C2)cn1 (configuration not stated): -1.01

Percent Effect in this record for O=C(CCC1CCCC1)NCCn1nc(C2CCNC2)c2cccnc21 (configuration not stated) : -1.12

Percent Effect in this record for `Cc1cccc(CC(=O)NCCCOC(C)C)c1` : -7.62

Percent Effect in this record for `CCc1ccccc1-n1cc(O)c(C(=O)N2CCCCC2)n1` : 2

Percent Effect in this record for `c1cnn(CCNCc2nnc(C3CC3)o2)c1` : -13.5

Percent Effect in this record for `Cc1ccc(OCC(=O)NCC(C)C)nc1` : -8.95

Percent Effect in this record for CN(C)c1ccc(CCNC(=O)C2CCC(=O)N(C3CCCC3)C2)cc1 (configuration not stated) : -5.65

Percent Effect in this record for `O=C(C1CCCC1)N1CCN(Cc2nc(-c3ccco3)no2)CC1` : -4.84

Percent Effect in this record for `Cc1nc(CO[C@@H]2CN(Cc3cnn(C)c3)[C@@H]3COC[C@@H]32)cs1` : 3.26

Percent Effect in this record for CC(C)N1CCOCC2(CN(Cc3ccco3)CCO2)C1 (configuration not stated) : 0.188

Percent Effect in this record for CCc1nccc(CN2CCCC(c3nn(C)c(=O)n3CC)C2)n1 (configuration not stated) : -3.17

Percent Effect in this record for `Cc1ccc2nc(C3CCN(CCO)CC3)nn2c1` : -0.68

Percent Effect in this record for Cc1cnn(CC(C)NCc2ccc(S(C)(=O)=O)cc2)c1 (configuration not stated) : -28

Percent Effect in this record for COc1ccc(CN(C)CC2(O)CCN(C(=O)c3cccn3C)C2)cc1 (configuration not stated) : -10.2

Percent Effect in this record for `COCCN(Cc1ccoc1)C(=O)c1ccccc1Cl` : -1.4

Percent Effect in this record for `O=C(Cc1ccc2c(c1)OCO2)N1CCN(c2cnccn2)CC1` : -11.8

Percent Effect in this record for `COc1ccccc1CC(=O)N1CCC(NCc2cc[nH]c2)CC1` : -7.56

Percent Effect in this record for `O=C([C@@H]1CC[C@@H]2[C@@H](CCN2Cc2cccc(F)c2)O1)N1CCCCO1` : -4.83

Percent Effect in this record for O=C(NC1CCS(=O)(=O)C1)N1CCN(c2cnccn2)CC1 (configuration not stated) : -6.05

Percent Effect in this record for `CCn1nccc1CNC(=O)C1CC1` : 132
